- Tested Target: T1, EsCas13d, nuclease-dead (Eubacterium siraeum, UniProt B0MS50, R295A;H300A;R849A;H854A)
- T1 sequence: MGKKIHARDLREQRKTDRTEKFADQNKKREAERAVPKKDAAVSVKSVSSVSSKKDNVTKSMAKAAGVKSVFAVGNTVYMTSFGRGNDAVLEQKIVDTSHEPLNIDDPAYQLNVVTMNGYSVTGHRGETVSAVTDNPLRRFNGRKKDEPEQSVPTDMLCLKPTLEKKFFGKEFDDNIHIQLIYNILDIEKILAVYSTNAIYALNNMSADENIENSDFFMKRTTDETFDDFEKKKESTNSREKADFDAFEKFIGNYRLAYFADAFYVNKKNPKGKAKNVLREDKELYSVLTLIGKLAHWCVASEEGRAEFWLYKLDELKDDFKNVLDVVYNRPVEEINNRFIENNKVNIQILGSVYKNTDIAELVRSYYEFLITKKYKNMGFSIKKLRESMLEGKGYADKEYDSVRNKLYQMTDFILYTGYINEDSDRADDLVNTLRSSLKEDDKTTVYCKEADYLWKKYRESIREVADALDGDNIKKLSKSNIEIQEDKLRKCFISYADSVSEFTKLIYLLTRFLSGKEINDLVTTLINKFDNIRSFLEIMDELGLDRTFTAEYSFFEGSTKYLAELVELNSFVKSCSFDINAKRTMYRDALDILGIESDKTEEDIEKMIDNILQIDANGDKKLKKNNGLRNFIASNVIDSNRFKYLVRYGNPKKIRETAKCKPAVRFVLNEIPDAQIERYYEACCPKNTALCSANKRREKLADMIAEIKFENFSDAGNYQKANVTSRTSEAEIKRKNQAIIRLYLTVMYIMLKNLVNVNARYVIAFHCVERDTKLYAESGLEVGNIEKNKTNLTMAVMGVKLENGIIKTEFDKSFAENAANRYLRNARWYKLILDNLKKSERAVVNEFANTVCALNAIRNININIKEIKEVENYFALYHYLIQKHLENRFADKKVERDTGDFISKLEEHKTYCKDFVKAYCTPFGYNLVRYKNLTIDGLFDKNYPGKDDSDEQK
- Assay Comment: crRNA (strand 1, pre-loaded); Mg2+; 40 mM Tris-HCl pH 7.5, 150 mM NaCl, 6 mM MgCl2, 1 mM DTT, 0.1% Tween-20, 0.2 mg/ml BSA; 25 C; 10 min per concentration, then washed
- Experimental Parameters: tags: His6-TwinStrep-SUMO cleaved; N-terminal SNAP kept (SNAP-Surface 488); label: 3' end held by stalled T7 RNA polymerase
Threshold-based label: Kd under 30 nM gives True, Kd not under 30 nM gives False.

Ask | Does the reported Kd of the following binder sit strictly below 30 nM? target 1 insG 3' of 1,insU 3' of 1 (mixed) RNA 1: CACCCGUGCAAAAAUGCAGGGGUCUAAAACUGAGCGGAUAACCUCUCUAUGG RNA 2: GGGAAUGGAUCCACAUCUACGAAUUCGUACCAUAGAGAGGUUAUCCGCUCAGUCCGAGAUCGGAAGAGCACACGU
Reply | True

Ask | Does the reported Kd of the following binder sit strictly below 30 nM? target 1 insC 3' of 17,insU 3' of 9 (mixed) RNA 1: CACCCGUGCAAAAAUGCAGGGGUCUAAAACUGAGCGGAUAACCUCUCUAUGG RNA 2: GGGAAUGGAUCCACAUCUACGAAUUCGUACCAUAGCAGAGGUUAUUCCGCUCACCGAGAUCGGAAGAGCACACGU
Reply | False

Ask | Does the reported Kd of the following binder sit strictly below 30 nM? target 2 MT 5'PFS UUU 3'PFS AAC (mixed) RNA 1: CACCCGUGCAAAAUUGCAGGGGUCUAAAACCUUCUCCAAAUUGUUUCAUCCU RNA 2: GGGAAUGGAUCCACAUCUACGAAUUCUUUAGGAUGAAACAAUUUGGAGAAGAACAGAUCGGAAGAGCACACGU
Reply | True

Ask | Does the reported Kd of the following binder sit strictly below 30 nM? target 3 insG 3' of 5,insA 3' of 4 (mixed) RNA 1: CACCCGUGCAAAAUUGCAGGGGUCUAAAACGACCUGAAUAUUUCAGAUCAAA RNA 2: GGGAAUGGAUCCACAUCUACGAAUUCGUUUUUGAUCUGAAAUAUUCAGGAGUCUGCAGAUCGGAAGAGCACACGU
Reply | True

Ask | Does the reported Kd of the following binder sit strictly below 30 nM? target 1 insA 3' of 17,insC 3' of 1 (mixed) RNA 1: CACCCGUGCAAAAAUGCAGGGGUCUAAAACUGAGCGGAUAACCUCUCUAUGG RNA 2: GGGAAUGGAUCCACAUCUACGAAUUCGUACCAUAGAAGAGGUUAUCCGCUCACCCGAGAUCGGAAGAGCACACGU
Reply | True

Ask | Does the reported Kd of the following binder sit strictly below 30 nM? target 2 MT 5'PFS ACC 3'PFS CAG (mixed) RNA 1: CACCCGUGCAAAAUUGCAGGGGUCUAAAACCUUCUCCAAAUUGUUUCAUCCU RNA 2: GGGAAUGGAUCCACAUCUACGAAUUCACCAGGAUGAAACAAUUUGGAGAAGCAGAGAUCGGAAGAGCACACGU
Reply | True
